assay.method.text: Acid dissociation constant, pKa for OH group of the compound in DMSO-water mixture at 25 +/- 0.1 degC by potentiometric method
Type: physicochemical
result.type: pKa
Enter a number only.

>>> val("COC(=O)[C@H]1[C@@H](C(=O)OC)C(c2ccccc2)(c2ccccc2)N(c2nc(-c3ccccc3)c(C(=O)c3ccc(F)cc3)s2)[C@H]1C(=O)OC")
10.2

**Query** Sample "COC(=O)[C@H]1C[C@@H](S(=O)(=O)c2ccccc2)C(c2ccccc2)(c2ccccc2)N1c1nc(-c2ccccc2)c(C(=O)c2ccccc2)s1" — what was its pKa?
**Result** 8.64

**Query** Another: "COC(=O)[C@H]1C[C@@H](S(=O)(=O)c2ccccc2)C(c2ccccc2)(c2ccccc2)N1c1nc(-c2ccccc2)c(C(=O)c2ccc(Br)cc2)s1"
**Result** 9.53

**Query** Further, for "COC(=O)[C@H]1C[C@@H](C(=O)OC)C(c2ccccc2)(c2ccccc2)N1c1nc(-c2ccccc2)c(C(=O)c2ccc(Br)cc2)s1" ?
**Result** 9.91

**Query** Quick one: "COC(=O)[C@H]1[C@@H](C(=O)OC)C(c2ccccc2)(c2ccccc2)N(c2nc(-c3ccccc3)c(C(=O)c3ccccc3)s2)[C@H]1C(=O)OC"
**Result** 8.5

**Query** Next: "COC(=O)[C@H]1C[C@@H](C(=O)OC)C(c2ccccc2)(c2ccccc2)N1c1nc(-c2ccccc2)c(C(=O)c2ccc(OC)cc2)s1"
**Result** 10

----------
Collected pKa values appear next to each entry.
assay.method.text: Acid dissociation constant, pKa for OH group of the compound in DMSO-water mixture at 25 +/- 0.1 degC by potentiometric method
Format: physicochemical
Field format: numeric only.

>>> val("COC(=O)[C@H]1C[C@@H](S(=O)(=O)c2ccccc2)C(c2ccccc2)(c2ccccc2)N1c1nc(-c2ccccc2)c(C(=O)c2ccc(C#N)cc2)s1")
8.83
>>> val("COC(=O)[C@H]1C[C@@H](C(=O)OC)C(c2ccccc2)(c2ccccc2)N1c1nc(-c2ccccc2)c(C(=O)c2ccccc2)s1")
9.67
>>> val("COC(=O)[C@H]1[C@@H](C(=O)OC)C(c2ccccc2)(c2ccccc2)N(c2nc(-c3ccccc3)c(C(=O)c3ccc(OC)cc3)s2)[C@H]1C(=O)OC")
10.2
>>> val("COC(=O)[C@H]1C[C@@H](S(=O)(=O)c2ccccc2)C(c2ccccc2)(c2ccccc2)N1c1nc(-c2ccccc2)c(C(=O)c2ccc(F)cc2)s1")
8.73
>>> val("COC(=O)[C@H]1[C@@H](C(=O)OC)C(c2ccccc2)(c2ccccc2)N(c2nc(-c3ccccc3)c(C(=O)c3ccc(C#N)cc3)s2)[C@H]1C(=O)OC")
8.9

Switching to the query record.
**Query** Need pKa of "COC(=O)[C@H]1C[C@@H](S(=O)(=O)c2ccccc2)C(c2ccccc2)(c2ccccc2)N1c1nc(-c2ccccc2)c(C(=O)c2ccc(OC)cc2)s1" , thanks.
**Result** 9.28

----------
assay.method.text: Acid dissociation constant, pKa for SH group of the compound in DMSO-water mixture at 25 +/- 0.1 degC by potentiometric method
Format: physicochemical
// label = MET if pKa is not less than 6, otherwise NOT MET

Completed entries (count: 3):
>>> classification("COC(=O)[C@H]1C[C@@H](C(=O)OC)C(c2ccccc2)(c2ccccc2)N1c1nc(-c2ccccc2)c(C(=O)c2ccc(OC)cc2)s1")
"MET"
>>> classification("COC(=O)[C@H]1C[C@@H](C(=O)OC)C(c2ccccc2)(c2ccccc2)N1c1nc(-c2ccccc2)c(C(=O)c2ccccc2)s1")
"MET"
>>> classification("COC(=O)[C@H]1[C@@H](C(=O)OC)C(c2ccccc2)(c2ccccc2)N(c2nc(-c3ccccc3)c(C(=O)c3ccccc3)s2)[C@H]1C(=O)OC")
"NOT MET"

**Query** Evaluate "COC(=O)[C@H]1[C@@H](C(=O)OC)C(c2ccccc2)(c2ccccc2)N(c2nc(-c3ccccc3)c(C(=O)c3ccc(F)cc3)s2)[C@H]1C(=O)OC" : pKa at minimum 6?
**Result** MET

**Query** What about "COC(=O)[C@H]1[C@@H](C(=O)OC)C(c2ccccc2)(c2ccccc2)N(c2nc(-c3ccccc3)c(C(=O)c3ccc(OC)cc3)s2)[C@H]1C(=O)OC" ?
**Result** MET

----------
System: Escherichia coli
assay.method.text: Antibacterial activity against Escherichia coli
Type: functional
Entries annotated with measured MIC
The response must be a number in mg/L with no trailing unit.

Look over these answered cases.
>>> val("COC(=O)[C@H]1C[C@@H](C(=O)OC)C(c2ccccc2)(c2ccccc2)N1c1nc(-c2ccccc2)c(C(=O)c2ccc(C#N)cc2)s1")
125
>>> val("COC(=O)[C@H]1C[C@@H](C(=O)OC)C(c2ccccc2)(c2ccccc2)N1c1nc(-c2ccccc2)c(C(=O)c2ccccc2)s1")
125
>>> val("COC(=O)[C@H]1C[C@@H](C(=O)OC)C(c2ccccc2)(c2ccccc2)N1c1nc(-c2ccccc2)c(C(=O)c2ccc(OC)cc2)s1")
250

Here is another molecule to look at.
**Query** Sample "COC(=O)[C@H]1[C@@H](C(=O)OC)C(c2ccccc2)(c2ccccc2)N(c2nc(-c3ccccc3)c(C(=O)c3ccc(C#N)cc3)s2)[C@H]1C(=O)OC" — what was its MIC?
**Result** 125

----------
assay.method.text: Acid dissociation constant, pKa for SH group of the compound in DMSO-water mixture at 25 +/- 0.1 degC by potentiometric method
Format: physicochemical
Reported pKa values follow for various compounds

>>> val("COC(=O)[C@H]1C[C@@H](S(=O)(=O)c2ccccc2)C(c2ccccc2)(c2ccccc2)N1c1nc(-c2ccccc2)c(C(=O)c2ccccc2)s1")
5.9
>>> val("COC(=O)[C@H]1[C@@H](C(=O)OC)C(c2ccccc2)(c2ccccc2)N(c2nc(-c3ccccc3)c(C(=O)c3ccc(C#N)cc3)s2)[C@H]1C(=O)OC")
5.66
>>> val("COC(=O)[C@H]1C[C@@H](S(=O)(=O)c2ccccc2)C(c2ccccc2)(c2ccccc2)N1c1nc(-c2ccccc2)c(C(=O)c2ccc(C#N)cc2)s1")
5.78
>>> val("COC(=O)[C@H]1C[C@@H](C(=O)OC)C(c2ccccc2)(c2ccccc2)N1c1nc(-c2ccccc2)c(C(=O)c2ccc(C#N)cc2)s1")
5.61

**Query** Tell me the measured pKa of "COC(=O)[C@H]1C[C@@H](S(=O)(=O)c2ccccc2)C(c2ccccc2)(c2ccccc2)N1c1nc(-c2ccccc2)c(C(=O)c2ccc(F)cc2)s1" , please.
**Result** 5.84

**Query** Again, but for "COC(=O)[C@H]1C[C@@H](C(=O)OC)C(c2ccccc2)(c2ccccc2)N1c1nc(-c2ccccc2)c(C(=O)c2ccc(F)cc2)s1"
**Result** 6.09

----------
Quick reference: MIC of the listed items.
Tested on: Escherichia coli
assay.method.text: Antibacterial activity against Escherichia coli
Assay type: functional
Return type: number; implicit unit mg/L.

>>> val("COC(=O)[C@H]1C[C@@H](C(=O)OC)C(c2ccccc2)(c2ccccc2)N1c1nc(-c2ccccc2)c(C(=O)c2ccc(Br)cc2)s1")
250

**Query** Reported MIC, compound "COC(=O)[C@H]1[C@@H](C(=O)OC)C(c2ccccc2)(c2ccccc2)N(c2nc(-c3ccccc3)c(C(=O)c3ccc(OC)cc3)s2)[C@H]1C(=O)OC" : ____
**Result** 250

**Query** And what about the compound "COC(=O)[C@H]1C[C@@H](S(=O)(=O)c2ccccc2)C(c2ccccc2)(c2ccccc2)N1c1nc(-c2ccccc2)c(C(=O)c2ccc(OC)cc2)s1" ?
**Result** 125

**Query** Next up: "CC1(C)S[C@@H]2[C@H](NC(=O)[C@H](N)c3ccccc3)C(=O)N2[C@H]1C(=O)O"
**Result** 15.6

----------
assay.method.text: Acid dissociation constant, pKa for NH group of the compound in DMSO-water mixture at 25 +/- 0.1 degC by potentiometric method
Assay type: physicochemical
I would appreciate it if you labelled entries true (1) when pKa is 3 or higher, otherwise false (0).

>>> classification("COC(=O)[C@H]1[C@@H](C(=O)OC)C(c2ccccc2)(c2ccccc2)N(c2nc(-c3ccccc3)c(C(=O)c3ccc(F)cc3)s2)[C@H]1C(=O)OC")
"false (0)"
>>> classification("COC(=O)[C@H]1C[C@@H](S(=O)(=O)c2ccccc2)C(c2ccccc2)(c2ccccc2)N1c1nc(-c2ccccc2)c(C(=O)c2ccc(C#N)cc2)s1")
"true (1)"
>>> classification("COC(=O)[C@H]1[C@@H](C(=O)OC)C(c2ccccc2)(c2ccccc2)N(c2nc(-c3ccccc3)c(C(=O)c3ccc(OC)cc3)s2)[C@H]1C(=O)OC")
"false (0)"
>>> classification("COC(=O)[C@H]1C[C@@H](S(=O)(=O)c2ccccc2)C(c2ccccc2)(c2ccccc2)N1c1nc(-c2ccccc2)c(C(=O)c2ccc(F)cc2)s1")
"true (1)"

Next up:
**Query** Given the entry "COC(=O)[C@H]1C[C@@H](C(=O)OC)C(c2ccccc2)(c2ccccc2)N1c1nc(-c2ccccc2)c(C(=O)c2ccc(F)cc2)s1" , answer whether its pKa meets or surpasses 3.
**Result** false (0)

Values compiled from ChEMBL document CHEMBL4184279.
